The values you see were collected from patent US20050282743A1.

# system: T1, GST-MINT1 PDZ domains 1, 2, Q02410
# T1 chain: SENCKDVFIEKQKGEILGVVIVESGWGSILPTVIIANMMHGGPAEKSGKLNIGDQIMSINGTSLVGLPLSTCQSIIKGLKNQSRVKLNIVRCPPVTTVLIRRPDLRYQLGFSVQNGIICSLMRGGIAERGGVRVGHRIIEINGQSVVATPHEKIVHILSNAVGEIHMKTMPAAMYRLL
# testDescription: G assay titration, PDZ 2 ug/ml
pKd: −log10 of the molar value.
propertyLabel: pKd

[[record]]
binder = "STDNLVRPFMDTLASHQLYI (modifications not checked) [presenilin-2]"
measured = 5.22

